Measured values drawn from PubChem BioAssay AID1159536 for this set.

test system: Chlamydomonas reinhardtii, Nile Red lipid fluorescence, 72 h; assay: compounds raising TAG storage in Chlamydomonas – qHTS, Chlamydomonas reinhardtii, dose response (AID 1159536)
Inconclusive results are not listed. Active and inactive are the calls of the source. The rule behind the calls is not given here.
Classes used: T (active), F (inactive)

>  <compound>
Oc1ccc(Br)cc1CN1CCN(CC2CC3C=CC2C3)CC1 (centres undefined)

>  <label>
T

$$$$
>  <compound>
O=C(Nc1ccc(Br)cc1)c1ccccc1Cl

>  <label>
T

$$$$
>  <compound>
c1ccc(CN2CCC(N3CCN(C4CC5CCC4C5)CC3)CC2)cc1 (centres undefined)

>  <label>
T

$$$$
>  <compound>
Cc1ccc(C)c(N2CCN(CC3CC4C=CC3C4)CC2)c1 (centres undefined)

>  <label>
T

$$$$
>  <compound>
OC(COc1ccc(Cl)cc1Cl)CN1CCN(Cc2ccccc2)CC1 (centres undefined)

>  <label>
T

$$$$
>  <compound>
O=C(O)C1C2C=CC(O2)C1C(=O)Nc1ccccc1F (centres undefined)

>  <label>
F

$$$$
>  <compound>
CC(=O)N(C1=C(N(C)C)C(=O)c2ccccc2C1=O)c1ccc(Cl)c(Cl)c1

>  <label>
F

$$$$
>  <compound>
O=C(Nc1ccc([N+](=O)[O-])cc1)c1ccccc1Cl

>  <label>
T

$$$$
>  <compound>
Cc1ccc(C(C)C)cc1OCCOCCN1CCOCC1

>  <label>
T

$$$$
>  <compound>
Fc1ccc(CN2CCN(c3cccc(Cl)c3)CC2)cc1

>  <label>
T

$$$$
>  <compound>
Cc1cccc(N2CCN(Cc3ccc([N+](=O)[O-])cc3)CC2)c1C

>  <label>
T

$$$$
>  <compound>
Cc1cc(C)c(OCCCCN2CCNCC2)c(C)c1

>  <label>
T

$$$$
>  <compound>
COc1cccc(CN2CCN(Cc3ccc(F)cc3)CC2)c1OC

>  <label>
T

$$$$
>  <compound>
CN1CCCN(Cc2ccc([N+](=O)[O-])o2)CC1

>  <label>
F

$$$$
>  <compound>
COc1ccc(CN2CCN(Cc3ccccc3)CC2)c(OC)c1OC

>  <label>
T

$$$$
>  <compound>
CC1CCCN(C2CCN(S(=O)(=O)c3ccc(F)cc3)CC2)C1 (centres undefined)

>  <label>
T

$$$$
>  <compound>
O=C1CC(N2CCC(C(O)(c3ccccc3)c3ccccc3)CC2)C(=O)N1c1ccc(F)cc1 (centres undefined)

>  <label>
F

$$$$
>  <compound>
CC(CNC(=O)c1ccc(C(C)(C)C)cc1)CN(C)C (centres undefined)

>  <label>
T

$$$$
>  <compound>
c1ccc(N2CCN(CC3CCCCC3)CC2)cc1

>  <label>
T

$$$$

* * *

tested on: Chlamydomonas reinhardtii, Nile Red lipid fluorescence, 72 h; assay: compounds raising TAG storage in Chlamydomonas – qHTS, Chlamydomonas reinhardtii, dose response (AID 1159536)
Inconclusive results are not listed. Activity calls are given as the source filed them. How the calls were made is not given here.
Classes used: active, inactive

>  <compound>
O=C(Nc1ccc(Cc2ccncc2)cc1)c1cc(Br)ccc1Cl

>  <label>
inactive

$$$$
>  <compound>
Cc1ccccc1N1CCN(Cc2ccc(F)cc2)CC1

>  <label>
active

$$$$
>  <compound>
CN1CCN(Cc2cccc(Oc3ccccc3)c2)CC1

>  <label>
active

$$$$
>  <compound>
COc1ccc(CN(C)C2CCCCC2)cc1C

>  <label>
active

$$$$
>  <compound>
OC(COc1ccc(Br)cc1)CN1CCCCCC1 (stereo unspecified)

>  <label>
inactive

$$$$
>  <compound>
Cc1ccccc1N1CCN(Cc2ccc(O)cc2)CC1

>  <label>
active

$$$$

* * *

Entries and their measured EC50 follow.
system: Chlamydomonas reinhardtii, Nile Red lipid fluorescence, 72 h; assay: compounds raising TAG storage in Chlamydomonas – qHTS, Chlamydomonas reinhardtii, dose response (AID 1159536)
Results filed as inconclusive are left out. The source made the active and inactive calls. How the calls were made is not given here.
value_type: EC50

>  <entry_smiles>
O=C(CN1CCCCC1)Nc1ncc(Cc2ccc(F)cc2)s1

>  <result>
58.5 nM (inactive)

$$$$
>  <entry_smiles>
COc1cc(C)nc(NCc2ccccc2)n1

>  <result>
1330 nM

$$$$
>  <entry_smiles>
O=[N+]([O-])c1ccc(CNC2CCCCCC2)cc1

>  <result>
1880 nM

$$$$

* * *

tested on: Chlamydomonas reinhardtii, Nile Red lipid fluorescence, 72 h; test: compounds raising TAG storage in Chlamydomonas – qHTS, Chlamydomonas reinhardtii, dose response (AID 1159536)
Records with an inconclusive call do not appear. Activity calls are given as the source filed them. How the calls were made is not given here.
Classes used: 1 (yes) (active), 0 (no) (inactive)

>  <compound>
Clc1ccc(N2CCN(Cc3ccc4c(c3)OCO4)CC2)cc1

>  <label>
1 (yes)

$$$$
>  <compound>
Oc1ccc(CN2CCN(Cc3ccccc3)CC2)cc1

>  <label>
1 (yes)

$$$$
>  <compound>
O=C(C1COc2ccccc2O1)N1CCN(Cc2ccccc2)CC1 (centres undefined)

>  <label>
1 (yes)

$$$$
>  <compound>
COc1cc2c(cc1OC)CN(Cc1ccc(F)cc1)CC2

>  <label>
1 (yes)

$$$$
>  <compound>
CC(C)(C)c1csc(NC(=O)c2ccc(N3CCOCC3)c([N+](=O)[O-])c2)n1

>  <label>
1 (yes)

$$$$
>  <compound>
O=C(Nc1ccc(S(=O)(=O)N2CCCC2)cc1)c1ccc(Cl)cc1Cl

>  <label>
0 (no)

$$$$
>  <compound>
Cc1cc(C)c(S(=O)(=O)NCCCN2CCOCC2)cc1Br

>  <label>
1 (yes)

$$$$
>  <compound>
Oc1ccc(Br)cc1CN1CCC(N2CCOCC2)CC1

>  <label>
1 (yes)

$$$$
>  <compound>
CCN1CCC(N2CCN(c3ccc(Cl)cc3)CC2)CC1

>  <label>
1 (yes)

$$$$
>  <compound>
COc1ccc(CNC2CCCC(C)C2)cc1 (centres undefined)

>  <label>
1 (yes)

$$$$
>  <compound>
O=S(=O)(c1ccc(F)cc1)N1CCN(C2CCCCC2)CC1

>  <label>
1 (yes)

$$$$
>  <compound>
COc1ccc(CN(C)C2CCCCC2)c(C)c1C

>  <label>
1 (yes)

$$$$
>  <compound>
C=C(C)CN(CC)C(=O)C1CCN(Cc2ccc(Cl)cc2)CC1

>  <label>
1 (yes)

$$$$
>  <compound>
COc1cc(Cl)c(S(=O)(=O)NCCCN2CCOCC2)cc1Cl

>  <label>
1 (yes)

$$$$
>  <compound>
Fc1ccccc1N1CCN(CC2CCCCC2)CC1

>  <label>
1 (yes)

$$$$
>  <compound>
CN(C)c1ccc(NC(=O)Nc2ccc3nc(-c4ccccn4)c(-c4ccccn4)nc3c2)cc1

>  <label>
1 (yes)

$$$$
>  <compound>
CC1CCC(N2CCN(Cc3ccccc3)CC2)CC1 (centres undefined)

>  <label>
1 (yes)

$$$$
>  <compound>
CC(C)(C)c1ccc(OCC(O)CN2CCN(CCO)CC2)cc1 (centres undefined)

>  <label>
1 (yes)

$$$$
>  <compound>
OC(CNCCc1ccccc1)c1ccccc1 (centres undefined)

>  <label>
1 (yes)

$$$$

* * *

tested on: Chlamydomonas reinhardtii, Nile Red lipid fluorescence, 72 h; assay: compounds raising TAG storage in Chlamydomonas – qHTS, Chlamydomonas reinhardtii, dose response (AID 1159536)
Records with an inconclusive call do not appear. Active and inactive are the calls of the source. No rule for the calls is given here.
Classes used: active, inactive

>  <entry_smiles>
c1ccc(CN2CCN(C3CCCCC3)CC2)cc1

>  <label>
active

$$$$
>  <entry_smiles>
COc1ccccc1C(=O)N1CCN(C(=O)C(c2ccccc2)c2ccccc2)CC1

>  <label>
inactive

$$$$
>  <entry_smiles>
Cc1cc(Br)ccc1OCCCN1CCN(C)CC1

>  <label>
active

$$$$
